- STUDY TARGET: FGFR1 (UniProt P11362)
- Sequence (P11362 whole entry, looked up): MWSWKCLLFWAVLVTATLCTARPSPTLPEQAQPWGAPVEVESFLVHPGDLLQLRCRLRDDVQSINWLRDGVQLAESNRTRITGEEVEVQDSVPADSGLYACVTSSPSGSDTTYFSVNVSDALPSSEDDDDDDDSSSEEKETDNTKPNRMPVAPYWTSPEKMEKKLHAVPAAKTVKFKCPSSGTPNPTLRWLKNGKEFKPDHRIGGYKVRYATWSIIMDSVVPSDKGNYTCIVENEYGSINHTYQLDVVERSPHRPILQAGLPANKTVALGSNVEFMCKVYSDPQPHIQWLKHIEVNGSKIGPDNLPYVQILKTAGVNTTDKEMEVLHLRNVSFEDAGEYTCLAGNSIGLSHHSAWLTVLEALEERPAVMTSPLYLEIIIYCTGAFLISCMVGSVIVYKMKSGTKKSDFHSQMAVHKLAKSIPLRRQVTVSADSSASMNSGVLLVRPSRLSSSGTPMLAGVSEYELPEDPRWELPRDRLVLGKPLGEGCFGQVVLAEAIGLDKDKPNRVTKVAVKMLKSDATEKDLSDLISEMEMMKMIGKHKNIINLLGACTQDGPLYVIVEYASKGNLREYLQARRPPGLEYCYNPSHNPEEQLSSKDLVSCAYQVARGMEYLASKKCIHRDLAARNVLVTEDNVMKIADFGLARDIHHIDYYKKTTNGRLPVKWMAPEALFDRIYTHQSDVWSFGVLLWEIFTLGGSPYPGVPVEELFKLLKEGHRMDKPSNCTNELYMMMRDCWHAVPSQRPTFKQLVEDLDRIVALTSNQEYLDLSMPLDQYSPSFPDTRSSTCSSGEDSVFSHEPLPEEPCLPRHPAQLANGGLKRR
- MEASUREMENT NOTES: phosphorylation enrichment, bacterial display (enrichment ratio); higher = better substrate or ligand; peptides without Tyr show the background
METRIC NAME: phosphorylation enrichment
Please give only the number in your answer, with no unit.

1. KTNVSYCGALD [CACNB4_Y103] ... 0.494
2. DRTGHYLCNAC [GATA1_Y223] ... 0.349
3. AHAGEYGAVAL [HBA1_Y25_E28V] ... 0.421

The recorded phosphorylation enrichment for entry SFCFRYCCAAR [SUMF1_Y344_R345C_YF] equals 0.504

For this sequence ( MSRNLYSGDYY [DDR2_Y736] ), measured phosphorylation enrichment is 7.13

The sequence listed as IQVNAYFSPIH [ADSL_Y432_D430N] shows phosphorylation enrichment equal to 0.595

Input GRFCGYKSKHG [EPHA3_Y570] . Output phosphorylation enrichment: 0.374

The recorded phosphorylation enrichment for QTEAPYRFIYM [PTPN11_Y511_Q510P] is 7.24

Lab note: measured phosphorylation enrichment of FDCGMYSHLQG [LGR4_Y848_YF] was 0.89

Reported phosphorylation enrichment for EMFNPCFGLFE [NEDD4L_Y679_Y679C_YF] was 0.667

Just so you know, measured phosphorylation enrichment for SLKEFYGEDAK [ALDH3A1_Y272] came out at 0.472

Memo: EGDGVYTLNNK [HP_Y125_E130K] , reported phosphorylation enrichment: 0.48

phosphorylation enrichment in this record for ELQGTYTSLQQ [KIF3C_Y574_R571Q] : 0.63

Item: MTRDIYRASFF [ALK_Y1278_A1274T_YF] | phosphorylation enrichment: 0.572

Field phosphorylation enrichment (entry IDSTPYRQWYE [RPS8_Y109] ) reads 0.521

---

- STUDY TARGET: Jak2 (UniProt O60674)
- Sequence (O60674 whole entry, looked up): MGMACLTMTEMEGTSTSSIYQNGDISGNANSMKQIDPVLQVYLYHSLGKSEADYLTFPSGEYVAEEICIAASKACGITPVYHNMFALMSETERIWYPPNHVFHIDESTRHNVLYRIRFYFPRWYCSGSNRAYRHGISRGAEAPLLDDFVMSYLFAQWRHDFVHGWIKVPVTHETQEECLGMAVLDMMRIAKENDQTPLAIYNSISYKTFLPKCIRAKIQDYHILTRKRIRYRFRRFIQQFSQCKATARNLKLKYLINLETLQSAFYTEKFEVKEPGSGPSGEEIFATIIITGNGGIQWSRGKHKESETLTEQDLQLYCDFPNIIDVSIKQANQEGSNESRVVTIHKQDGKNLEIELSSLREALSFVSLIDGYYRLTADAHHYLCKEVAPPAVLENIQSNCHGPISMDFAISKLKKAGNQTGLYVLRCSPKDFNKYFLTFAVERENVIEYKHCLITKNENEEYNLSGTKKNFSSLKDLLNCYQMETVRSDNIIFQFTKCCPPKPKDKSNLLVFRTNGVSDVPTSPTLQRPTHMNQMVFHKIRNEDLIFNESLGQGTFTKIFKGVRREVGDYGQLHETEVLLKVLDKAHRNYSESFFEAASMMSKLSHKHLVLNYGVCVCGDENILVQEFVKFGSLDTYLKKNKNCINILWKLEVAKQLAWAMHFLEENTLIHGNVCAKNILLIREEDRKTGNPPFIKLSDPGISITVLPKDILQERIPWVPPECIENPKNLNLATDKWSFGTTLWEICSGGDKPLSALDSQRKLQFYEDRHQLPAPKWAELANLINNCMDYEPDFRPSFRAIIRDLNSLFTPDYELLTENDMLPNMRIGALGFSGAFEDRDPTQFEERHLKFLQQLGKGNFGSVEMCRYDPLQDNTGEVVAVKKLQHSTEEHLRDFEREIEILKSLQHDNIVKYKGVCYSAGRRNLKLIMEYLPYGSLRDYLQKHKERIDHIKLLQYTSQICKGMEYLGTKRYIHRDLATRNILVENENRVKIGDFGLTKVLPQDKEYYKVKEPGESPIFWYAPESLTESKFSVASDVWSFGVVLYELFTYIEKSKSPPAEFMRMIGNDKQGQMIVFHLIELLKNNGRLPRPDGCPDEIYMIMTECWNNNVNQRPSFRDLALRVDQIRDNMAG
- MEASUREMENT NOTES: phosphorylation enrichment, bacterial display (enrichment ratio); higher = better substrate or ligand; peptides without Tyr show the background
Definition: the class of an entry is the range in low bin: < 0.7; mid bin: ≥ 0.7 and < 1; high bin: ≥ 1 that contains its phosphorylation enrichment.

1) ALPGEYIPTVF [RAC1_Y32_F28L] ... high bin
2) HAVVDYMRRQK [ATM_Y1915_L1910H] ... mid bin

INPUT: Form field 'band' for LADKPYTFEYY [FXN_Y118_D122Y]
OUTPUT: high bin

---

- STUDY TARGET: Fes (UniProt P07332)
- Sequence (P07332 whole entry, looked up): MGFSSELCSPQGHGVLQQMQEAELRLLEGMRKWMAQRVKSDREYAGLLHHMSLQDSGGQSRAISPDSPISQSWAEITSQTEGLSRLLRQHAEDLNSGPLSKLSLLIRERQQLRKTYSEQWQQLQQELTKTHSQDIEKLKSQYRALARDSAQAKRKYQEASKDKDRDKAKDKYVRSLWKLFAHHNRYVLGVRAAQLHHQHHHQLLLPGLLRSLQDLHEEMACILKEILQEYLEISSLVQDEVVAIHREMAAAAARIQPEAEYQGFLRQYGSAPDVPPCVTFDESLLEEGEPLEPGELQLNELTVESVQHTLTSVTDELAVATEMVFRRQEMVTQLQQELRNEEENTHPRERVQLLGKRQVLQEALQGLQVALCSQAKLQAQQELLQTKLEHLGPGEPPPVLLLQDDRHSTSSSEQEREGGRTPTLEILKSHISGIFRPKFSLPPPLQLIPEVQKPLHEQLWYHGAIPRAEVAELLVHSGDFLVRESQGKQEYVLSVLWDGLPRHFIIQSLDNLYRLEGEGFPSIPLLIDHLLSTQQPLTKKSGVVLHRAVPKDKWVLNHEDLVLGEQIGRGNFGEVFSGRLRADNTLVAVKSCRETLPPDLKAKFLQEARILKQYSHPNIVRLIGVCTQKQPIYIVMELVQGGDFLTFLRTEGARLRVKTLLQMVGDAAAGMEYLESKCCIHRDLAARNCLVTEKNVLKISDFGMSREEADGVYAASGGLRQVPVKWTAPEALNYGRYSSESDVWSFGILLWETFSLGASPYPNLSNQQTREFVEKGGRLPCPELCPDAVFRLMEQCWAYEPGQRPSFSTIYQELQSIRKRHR
- MEASUREMENT NOTES: phosphorylation enrichment, bacterial display (enrichment ratio); higher = better substrate or ligand; peptides without Tyr show the background
Would you mind labelling by phosphorylation enrichment? At or over 0.9 is 1.0, under is 0.0.

Known results for sequences:
1) LVRPPYSFLAL [FOXI1_Y126_S129L_YF] ... 0.0
2) INITIYGKTFR [EFHC1_Y177] ... 1.0
3) HVEAVYIDIAD [PITPNA_Y140] ... 1.0
4) SIKHKYVTALY [KCNH2_Y611_D609H] ... 0.0
5) TVLEPYTDPYY [ZC3H18_Y367_A368T] ... 0.0
6) LDVDVYGPSVP [NUBPL_Y109] ... 1.0
7) GGTPLYRDRQG [AGXT_Y194_M195R] ... 0.0
8) LLTALYFISWG [KCNH2_Y780_R784W] ... 1.0

INPUT: Check if phosphorylation enrichment >= 0.9 (inclusive). Item: FSCLPCGRLAF [SLC52A2_Y305_Y305C_YF]
OUTPUT: 0.0

INPUT: Determine whether measured phosphorylation enrichment meets or exceeds 0.9 for HSDYQYGQRSQ [PKP2_Y168_S169G]
OUTPUT: 0.0

INPUT: Does the sequence KWRGQYDVANK [BTK_Y425_I429N] have recorded phosphorylation enrichment that is 0.9 or more?
OUTPUT: 0.0

INPUT: Determine whether measured phosphorylation enrichment meets or exceeds 0.9 for CDFKKYGKGLR [ZNF445_Y433_Y428C_YF]
OUTPUT: 0.0

---

- STUDY TARGET: Fes (UniProt P07332)
- MEASUREMENT NOTES: phosphorylation enrichment, bacterial display (enrichment ratio); higher = better substrate or ligand; peptides without Tyr show the background
Below: a set of entries, each annotated with reported phosphorylation enrichment.
The answer should be written as a number, with no unit following it.

The following sequences have reported results that may help.
1) KLYRVYCDMNT [FGB_Y269_P265L] ... 1.07
2) AVAFVYYKSIG [ADGRL4_Y301] ... 1.29
3) RSACTYLAPHL [PLK3_Y615_S618P] ... 1.02
4) PYSEPYADYGG [APBA1_Y187] ... 1.72
5) ISGLKYPVSQQ [BTK_Y375_R372G] ... 0.548

Simply: AHPIIYEIIEA [PYKtide_E_2014] , Fes (UniProt P07332), phosphorylation enrichment = 5.96

# lookup: TRLAQYDSNSK [BMX_Y216_S212R] on Fes (UniProt P07332), phosphorylation enrichment = 0.684

---

- STUDY TARGET: SHP2-C SH2;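 further: peptide library displayed on the E. coli surface as eCPX fusions, selected cells deep-sequenced, score is each peptide's frequency after selection divided by its frequency in the input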
- MEASUREMENT NOTES: SH2 binding enrichment of the phosphorylated peptide, bacterial display (enrichment ratio); higher = better substrate or ligand; peptides without Tyr show the background
Attribute: SH2 binding enrichment
Lab note: record the figure alone, no unit after it.

1) IIGNGYFFRVF [MYBPC3_Y1135_YF] ... 0.766
2) CFTRKYTLPPG [HSPB1_Y142] ... 0.601
3) RNGDRYFKGIV [DCX_Y64] ... 0.714

Form field SH2 binding enrichment, entry PLDGEYFTHQI [TP53_Y327_L330H] : 0.717

According to the records, this sequence EKSREYHRLFE [PIK3R1_Y463_D464H_YF] displays SH2 binding enrichment of 0.753

# sequence SVSVNYGDLVQ [GRAP_Y101_Q104L] ; its SH2 binding enrichment = 0.695

Field SH2 binding enrichment (entry KELAKYFKLHH [AK7_Y390_N389K_YF] ) reads 0.635

Measured SH2 binding enrichment, PSPMPCASCQM [FOXL2_Y215_Y215C] : 0.606

The recorded SH2 binding enrichment for SVTCTYSRALN [TP53_Y126_P128R] is 0.596

# SH2 binding enrichment (sequence: DRLASSLDKVR [KRT10_Y160_Y160S] ) is 0.846

Documented SH2 binding enrichment of GPTLSYGRDGR [MATR3_Y158] : 0.739

# SH2 binding enrichment of YIATQYSLRPR [LBR_Y166] = 0.685

For FADIAYIYRHG [PAH_Y166_N167I] the sequence record lists SH2 binding enrichment as 1.06

The recorded SH2 binding enrichment for ELQGTYTSLQQ [KIF3C_Y574_R571Q] is 1.63

---

Recorded measurements of phosphorylation enrichment, one per entry
- Test system: AncSZ
- MEASUREMENT NOTES: phosphorylation enrichment, bacterial display (enrichment ratio); higher = better substrate or ligand; peptides without Tyr show the background

1. NPQKSYFIRLF [WAS_Y83_YF] ... 1.09
2. INITIYGKTFR [EFHC1_Y177] ... 1.13
3. VHLFAYDWISI [BEST1_Y227_G222V_YF] ... 1.27
4. MKGDFYRFLAE [YWHAG_Y131_YF] ... 0.803

phosphorylation enrichment recorded for this sequence, RIGRKCKKVRF [F8_Y442_Y442C] , is 0.608

Lab note: measured phosphorylation enrichment of PELINYQQHNS [BTK_Y361_H362Q] was 1.1

Summary for this sequence, IGLHAYGDQYR [IDH1_Y135_R132L] : phosphorylation enrichment is 0.681

For KSIEEYLKLVG [RASAL2_Y381] the sequence record lists phosphorylation enrichment as 0.772

For record RGKDNYETSQL [SPP1_Y225_S224N] the listed phosphorylation enrichment is 0.857

---

- STUDY TARGET: Hck (UniProt P08631)
- Sequence (P08631 whole entry, looked up): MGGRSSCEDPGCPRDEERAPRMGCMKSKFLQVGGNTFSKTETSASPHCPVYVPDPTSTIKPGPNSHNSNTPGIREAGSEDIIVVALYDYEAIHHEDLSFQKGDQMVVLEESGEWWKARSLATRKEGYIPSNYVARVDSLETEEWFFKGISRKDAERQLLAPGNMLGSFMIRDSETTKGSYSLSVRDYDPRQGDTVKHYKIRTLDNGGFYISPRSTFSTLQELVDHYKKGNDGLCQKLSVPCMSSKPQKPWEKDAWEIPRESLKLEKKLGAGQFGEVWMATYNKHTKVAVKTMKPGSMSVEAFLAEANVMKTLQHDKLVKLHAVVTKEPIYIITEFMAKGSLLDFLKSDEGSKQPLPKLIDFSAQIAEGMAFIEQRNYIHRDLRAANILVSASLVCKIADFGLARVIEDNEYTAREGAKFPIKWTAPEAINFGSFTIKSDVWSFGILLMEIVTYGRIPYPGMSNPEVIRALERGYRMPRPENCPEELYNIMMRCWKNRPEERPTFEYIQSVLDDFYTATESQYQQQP
- MEASUREMENT NOTES: phosphorylation enrichment, bacterial display (enrichment ratio); higher = better substrate or ligand; peptides without Tyr show the background
Rule: phosphorylation enrichment of 0.5 or more gives label 1; anything lower gives label 0.

These solved cases illustrate the format of a correct answer.
1. IVRSLYKDLED [VHL_Y185_E186K] ... label 0
2. HVKHNYECLVY [XRCC5_Y416_I412V] ... label 1
3. KRAAIYNPVIF [RHO_Y301_S297R_YF] ... label 1
4. YLGRDYLETLM [DUS3L_Y610] ... label 1
5. FASVEYQEALS [GALNS_Y461_A459V] ... label 0
6. DLAAQYTTVGR [SGSH_Y240] ... label 1
7. YYSSEYHYVGG [CTSC_Y345] ... label 1
8. HRDSSYYWEIE [RAF1_Y340_Q335H] ... label 1

INPUT: Decide: is the reported value of phosphorylation enrichment for EVTRLYGSVCD [TC2N_Y154_K151T] equal to or greater than 0.5?
OUTPUT: label 1

INPUT: Threshold query (phosphorylation enrichment >= 0.5) on EKLQQYIAPGM [EPHB3_Y600]
OUTPUT: label 0

INPUT: Evaluate YNNYGYGSDGF [HNRNPH3_Y161_N163S] : phosphorylation enrichment at minimum 0.5?
OUTPUT: label 1

INPUT: Check this sequence for phosphorylation enrichment at or above 0.5: PNAFIYVVQLP [L1CAM_Y420_A415P_YF]
OUTPUT: label 1

INPUT: State whether the measured phosphorylation enrichment reaches 0.5, counting equality as reaching it, for LQFKNYQQLFD [MAN2A1_Y442]
OUTPUT: label 1

INPUT: Exam item: decide whether the reported phosphorylation enrichment for VRTGIYHGGKP [PIK3CA_Y361_E365K] is at least 0.5.
OUTPUT: label 1

INPUT: Please tell me: is the sequence TRLAQYDSNSK [BMX_Y216_S212R] at or over 0.5 in terms of phosphorylation enrichment?
OUTPUT: label 0

INPUT: Kindly determine if phosphorylation enrichment recorded for YLEKYYKFGSR [NNMT_Y25] is above or exactly 0.5.
OUTPUT: label 0

INPUT: Is phosphorylation enrichment at least 0.5? Consider DENWFYMRAAS [RPS19_Y54_T55M]
OUTPUT: label 0

INPUT: Does the sequence ILCTVYAFKMR [GRM3_Y754_T758M] have recorded phosphorylation enrichment that is 0.5 or more?
OUTPUT: label 1

INPUT: Given the entry DVFRQYASLRG [GANAB_Y379_T383R] , answer whether its phosphorylation enrichment meets or surpasses 0.5.
OUTPUT: label 0

INPUT: Hi, just wondering whether QQLVAYYSKHA [SRC_Y232] shows phosphorylation enrichment of 0.5 or higher.
OUTPUT: label 1
